assayTarget: cloned human β-adrenergic receptor subtype 1 (human, UniProt P08588 1-477)
Sequence (P08588 whole entry): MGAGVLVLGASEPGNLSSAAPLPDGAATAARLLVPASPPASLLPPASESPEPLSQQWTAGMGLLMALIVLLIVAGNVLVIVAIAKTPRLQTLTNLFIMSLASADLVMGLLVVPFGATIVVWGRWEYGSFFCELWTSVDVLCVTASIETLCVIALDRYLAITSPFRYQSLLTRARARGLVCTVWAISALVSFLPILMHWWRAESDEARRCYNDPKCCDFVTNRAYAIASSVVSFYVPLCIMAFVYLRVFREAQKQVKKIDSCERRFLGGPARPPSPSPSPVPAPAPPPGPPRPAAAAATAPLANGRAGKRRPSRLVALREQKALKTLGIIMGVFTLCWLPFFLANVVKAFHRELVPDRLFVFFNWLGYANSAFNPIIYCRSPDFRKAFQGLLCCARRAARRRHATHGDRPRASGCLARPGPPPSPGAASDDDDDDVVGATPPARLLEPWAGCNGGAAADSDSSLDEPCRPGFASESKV
experimentalReadout: pIC50
The meaning of pIC50 here: minus log10 of the concentration in molar units.

Briefly, pIC50 measured for β-cardiotoxin (ligand, also called beta-cardiotoxin; AY354198 protein) RKCLNTPLPLIYTTCPIGQDKCVKMTIKKLPSKYDVIRGCIDICPKSSADVEVLCCDTNKCNK : 5.00

Value source: patent US20100062980A1
